Origin of the recorded values: the supplement of paper PMC9170038

test system: MS2 coat protein; test: apparent KD of MS2 coat protein; designed switch direction (-1 OFF switch, 1 ON switch): 1; higher = weaker reporter binding; details: input ligand: FMN 200 uM
Parameter: apparent KD of MS2 coat protein

// lookup apparent KD of MS2 coat protein for CCGAUGUAUGGAGGAUAUGGAGCCUUAUUGGCUCCAGAAGGCUAAUAACAUGAGGAUCACCCAUGUCGGCGGUCUAAUGACCGA [Eli NG1ss - 55] (Eterna round: R96, puzzle: Same State NG 1)
48.2 nM

Quick one: apparent KD of MS2 coat protein for CCAACAUACAAUUUAAGAUCACAUGAGGAUCACCCAUGUAUGCAGGAUAUCAGCUCGAUUAGAGCUGAGAAGGGCAAUUUAAUU [SSNG3/1-A2] (Eterna round: R96, puzzle: Same State NG 3) ?
89.6 nM

Consider the sequence shown here: AGGCCACCGGAAGGAUAUGGCACCUUAUUGGUGCCAGAAGGUCCAACAUGAGGAUCACCCAUGUGGGUGGGUUCUAAUGAACAU [Fiskers NG1 - 2] (Eterna round: R96, puzzle: Same State NG 1) What is its recorded apparent KD of MS2 coat protein?
76.5 nM
